- target.entity: UniProtKB C7C422
- protocol.text: Enzyme activity: determination of IC50, fluorescence assay with CCF2-FA substrate
- Assay type: biochemical
- condition.parameters: NDM-1 enzyme 1 pM, CCF2-FA 1.25 μM, 2 hours at 25° C.; read-out: NDM1 IC50
pIC50: −log10 of the molar value.
1 means recorded pIC50 is 7 or above; 0 means it is below 7.

For this compound, is measured pIC50 7 or higher? CCC[C@H](C(=O)O)[C@H](Cc1ccc(C2CCN(C=N)CC2)cc1)c1nnn[nH]1 [Example 297]
1

Determine whether measured pIC50 meets or exceeds 7 for CC(C)C[C@H](C(=O)O)[C@H](Cc1ccc(Oc2cccc(CN)c2)nc1)c1nn[nH]n1 [Example 400]
0

Is the recorded value of pIC50 equal to or greater than 7 for this compound? CC(C)C[C@H](C(=O)O)[C@H](Cc1ccc(N2CC(N)C2)nc1)c1nnn[nH]1 [Example 327]
0

State whether the measured pIC50 reaches 7, counting equality as reaching it, for CCC[C@H](C(=O)O)[C@H](Cc1cccc(-c2ccc(C(N)=O)cc2)c1)c1nn[nH]n1 [Example 351]
1

Could you verify whether the entry CCC[C@H](C(=O)O)[C@H](Cc1cccc(N2CCC[C@H](N)C2)c1)c1nn[nH]n1 [Example 366] shows pIC50 of no less than 7?
0

Hi team, for CCC[C@H](C(=O)O)[C@H](Cc1ccc(C2=CCCNC2)cc1)c1nn[nH]n1 [Example 302] , is the recorded pIC50 at or above 7?
0

Is pIC50 at least 7? Consider CC(C)C[C@H](C(=O)O)[C@H](Cc1ccc(Oc2ccccn2)nc1)c1nn[nH]n1 [Example 391]
1

Does CNC1CC=C(c2ccc(C[C@H](c3nn[nH]n3)[C@H](CC(C)C)C(=O)O)cc2F)CC1 (stereo partly drawn) [Example 451, 2,2,2-trifluoroacetate] have a reported pIC50 of at least 7?
1

Has CCC[C@H](C(=O)[O-])[C@H](Cc1ccc(C2CC[N+](C)(C)C2)cc1)c1nnn[nH]1 (stereo partly drawn) [Example 418] a recorded pIC50 greater than or equal to 7?
0

Quick check: does CCC[C@H](C(=O)O)[C@H](Cc1cccc(-c2cncc3ccccc23)c1)c1nn[nH]n1 [Example 352] have pIC50 greater than or equal to 7?
1

Does pIC50 meet or surpass 7 for CCC[C@H](C(=O)O)[C@H](Cc1cccc(-c2ccc(N3CCNCC3)nc2)c1)c1nn[nH]n1 [Example 355] ?
1

Threshold query (pIC50 >= 7) on CC(C)(C)C(C(=O)O)[C@H](Cc1ccc(C2CCNC2)nc1)c1nnn[nH]1.O=C(O)C(F)(F)F (stereo partly drawn) [Example 430, 2,2,2-trifluoroacetate]
0

Check the entry CCC[C@H](C(=O)O)[C@H](Cc1cccc(-c2ccnc(N)c2)c1)c1nn[nH]n1 [Example 349] : does pIC50 equal or exceed 7?
1

Is pIC50 at least 7? Consider CC(C)C[C@H](C(=O)O)[C@H](Cc1ccc(CCN)c(F)c1)c1nn[nH]n1.O=C(O)C(F)(F)F [Example 445, 2,2,2-trifluoroacetate]
0

====

- target.entity: NDM-1 (Klebsiella pneumoniae)
- Sequence (C7C422 29-270, looked up, species assumed): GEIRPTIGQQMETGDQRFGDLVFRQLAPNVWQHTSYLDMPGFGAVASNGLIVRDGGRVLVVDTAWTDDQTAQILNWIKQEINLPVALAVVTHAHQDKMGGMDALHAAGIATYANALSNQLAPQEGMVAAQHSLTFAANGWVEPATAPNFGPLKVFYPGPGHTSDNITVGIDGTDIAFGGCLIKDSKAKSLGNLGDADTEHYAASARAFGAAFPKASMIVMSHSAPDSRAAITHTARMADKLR
- protocol.text: Enzyme activity: determination of IC50, fluorescence assay with CCF2-FA substrate
- Format: biochemical
- condition.parameters: NDM-1 enzyme 1 pM, CCF2-FA 1.25 μM, 2 hours at 25° C.; read-out: NDM1 IC50
Record form. Attribute: IC50. Fill in for each entry.
Kindly write the number and append the unit.

Look up and state reported IC50 for "CCC[C@H](C(=O)O)[C@H](Cc1cccc(N2CC[C@@H](N)C2)c1)c1nn[nH]n1"
110 nM

Specify reported IC50 for the compound shown: "CCC[C@H](C(=O)O)[C@H](Cc1ccccc1-c1ccccc1)c1nn[nH]n1"
3.2 nM

Determine from records and report IC50 for "CCC[C@H](C(=O)O)[C@H](Cc1ccc(C2CCN(C)CC2)cc1)c1nn[nH]n1"
550 nM

Please give the documented IC50 of "CC(C)C[C@H](C(=O)O)[C@H](Cc1ccc(N2CC(CCN)C2)nc1)c1nnn[nH]1"
6400 nM
